B1: Ankyrin repeat and SAM domain-containing protein 6, residues 774 to 836; numbered along this chain, Q68DC2 (parent)
chain: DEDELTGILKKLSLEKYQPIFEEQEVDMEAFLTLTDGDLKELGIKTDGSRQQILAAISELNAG

variants of: B1; experiment: abundance fitness (aPCA) (normalised: wild type 0, dead -1); higher = more abundant; growth selection in yeast, the domain comes from the species named; conditions: Homo sapiens
We begin with a simple list: items and their reported abundance fitness.
EXPERIMENTAL_ENDPOINT: abundance fitness

>>> print(df.to_string())
    mutations  test_value
 0        I8K      -0.162
 1        D3Y       0.116
 2        L5Y      -0.504
 3       D36T      -0.532
 4        E4V      -0.215
 5       Q24R      -0.096
 6       V26R      -0.588
 7        L5V       -0.18
 8       I57F      -0.675
 9       L14Y       -0.97
10        E2F       0.287
11       Q24Y      -0.112
12       P19T      -0.138
13       V26K      -0.425
14        L9W      -0.963
15       I44A      -0.574
16       K11G      -0.224
17       S13Y      -0.623
18        E2Y       0.063
19       L34R      -0.523
20       N61C      -0.314
21       Q18L      -0.092
